The origin of these recorded values is PubChem BioAssay AID1159580.

# method.summary: chemical genetic growth profiling, strain panel (AID 1159580);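 note: tested at 20 µM; growth read once vehicle control cultures reached saturation at 30 °C; 1 = growth at the plate median or of vehicle wells; lower values mean less growth of the strain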
# condition.set: S. cerevisiae deletion strains, growth OD, locus YBR135W, strain CKS1, stronger effect = lower value
The whole screen tested about 5,500 compounds, of which about 2,000 (36%) were called active. Not shown: some 18% with an inconclusive outcome. This is one part of the list.
Could you please report measured normalized growth for the items listed next?
Could you respond with only the numeric value?

So what does the record say about normalized growth for "CC(C)(C)c1ccc(N/N=C(\C#N)C(N)=O)cc1" ?
0.109

Record: CC(C)(C)c1ccc(C(=N)SC(C(=O)C(F)(F)F)c2ccccc2)cc1 (configuration not stated)
0.994

Now the same for "N#C/C(=N/Nc1ccc(F)cc1)C(=O)c1ccccc1"
0.842

One more molecule: "CC(C)c1ccc(COC(=O)Nc2ccc(CSc3ccc(Cl)cc3)o2)cc1"
0.983

Check "Oc1c(Cl)cc(Cl)cc1C=Nc1nc(-c2ccc3ccccc3c2)cs1" too.
0.947

Same read-out for "CC1(C)CC(=O)C=C(Sc2nc3ccccc3o2)C1" ?
0.955

For "O=C(c1csc(-c2ccc(Cl)cc2)c1)N1CCCCC1" then?
0.943

Entry to check: "CCCN(CCC)C(=S)NC(=O)c1cccc([N+](=O)[O-])c1"
0.977

What do you have for "COc1cc(Cl)ccc1N/N=C(/C#N)C(N)=O" ?
0.109

Try this molecule too: "O=[N+]([O-])c1ccc(-c2noc(-c3ccno3)n2)o1"
0.133

Thanks! And CCOC(=O)C1C(c2c(F)cccc2Cl)C(C(=O)OCC)C(O)(C(F)(F)F)NC1(O)C(F)(F)F (configuration not stated) ?
0.994

Consider next the molecule "Cc1c(C(=O)Sc2ccc(F)cc2F)sc2nc(C(F)(F)F)nn12" in the same way.
0.105

Can you handle "N#C/C(=N/Nc1ccc(F)cc1)S(=O)(=O)c1ccc(Cl)cc1" next?
0.965

Now the same for "CC(=O)/C(C#N)=N\Nc1ccc(F)cc1"
0.782

// query: "O=C(/C=C/c1ccc2c(c1)OCO2)Nc1ccc(Br)cc1"
0.972

"N#C/C(=N/Nc1ccccc1)C(=O)c1ccccc1OC(F)(F)F" , same question.
0.91

Same for "O=C(NCc1ccc(Cl)c(Cl)c1)c1cccnc1OCC(F)(F)F"
0.947

* * *

# method.summary: chemical genetic growth profiling, strain panel (AID 1159580);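 note: tested at 20 µM; growth read once vehicle control cultures reached saturation at 30 °C; 1 = growth at the plate median or of vehicle wells; lower values mean less growth of the strain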
# condition.set: S. cerevisiae deletion strains, growth OD, locus YDL134C, strain PPH21, stronger effect = lower value
About 2,000 (36%) of roughly 5,500 compounds were called active. Inconclusive results (about 18%) are left out. Some of the results follow.
quantity.measured: normalized growth
Please give only the number in your answer, with no unit.

Data request, read-out normalized growth, for "N[C@@H](Cc1ccc(N(CCCl)CCCl)cc1)C(=O)O"
0.987

Same question, CCN1CCCC(OC(=O)C(c2ccccc2)c2ccccc2)C1 (stereo unspecified) this time
1.02

What do you get for "CN1CC(CO)=C[C@@H]2c3cccc4[nH]cc(c34)C[C@H]21" ?
0.998

What would you report for "O=[N+]([O-])c1ccc(S(=O)(=O)N2CCCCC2)cc1" ?
1

Query "CCN(CC)C(=O)N1CCN(C)CC1" next
1.04

Item: "O=C(O)CSCc1ccccc1"
0.986

Field entry: C/C=C(\C)C(=O)O[C@H]1C[C@@H](OC(C)=O)[C@@]2(C(=O)OC)CO[C@@H]3C2[C@]12CO[C@](O)(C(=O)OC)[C@H]2[C@](C)(C12O[C@@]1(C)[C@H]1C[C@@H]2OC2OC=C[C@@]21O)[C@@H]3O (stereo partly specified)
0.99

Here is the next compound: CN1C2CCC1CC(OC(c1ccccc1)c1ccccc1)C2 (stereo unspecified)
0.924

Also need COc1cc([C@@H]2c3cc4c(cc3C(OC3O[C@@H]5COC(C)O[C@H]5[C@H](O)[C@H]3O)C3COC(=O)[C@@H]32)OCO4)cc(OC)c1O (stereo partly specified) , thanks.
1.01

Another compound: "O=C(CCc1nc(-c2ccc(Cl)cc2)no1)NNS(=O)(=O)c1cc(Cl)c(Cl)cc1Cl"
1

Consider next the compound "COc1cc(OC)c2c(c1)O[C@H](c1cc(OC)c(OC)c(OC)c1)[C@H](OC(=O)c1cc(OC)c(OC)c(OC)c1)C2" in the same way.
1

Also check "Cc1nn(C)c(C)c1[N+](=O)[O-]"
1

Next entry: "C[n+]1c2cc(N)ccc2cc2ccc(N)cc21"
0.726

Also "Nc1nc(=S)c2[nH]cnc2[nH]1" , if possible.
1.01

Query COc1ccc(OC)c(C(O)CNC(=O)CN)c1 (stereo unspecified) next
1

Same for NCCC(O)C(=O)NC1CC(N)C(OC2OC(CN)C(O)C(O)C2N)C(OC2OC(CO)C(O)C2O)C1O (stereo unspecified)
0.999

// query: "CNC(=O)O/N=C(\C)SC"
1.01

Consider next the compound "CCCCC[C@H]1C(=O)O[C@H](C)[C@H](NC(=O)c2cccc(NC=O)c2O)C(=O)O[C@@H](C)[C@@H]1OC(=O)CC(C)C" in the same way.
0.86

Check "Oc1ccc2c(c1)O[C@H](c1ccc(O)c(O)c1)[C@@H](O)C2" too.
1.05

Another compound: "CCCCCCCCCCC[C@@H](C[C@H]1OC(=O)[C@H]1CCCCCC)OC(=O)[C@@H](CC(C)C)NC=O"
1.02

Record: Oc1cc(O)c2c(c1)OC(c1cc(O)c(O)c(O)c1)C(O)C2c1c(O)cc(O)c2c1OC(c1cc(O)c(O)c(O)c1)C(O)C2c1c(O)cc(O)c2c1OC(c1cc(O)c(O)c(O)c1)C(O)C2 (stereo unspecified)
0.937

Can you handle "CCOC(=O)Cc1csc(N=CNO)n1" next?
1.02

How about "CSc1nc(N)n(-c2ccccc2)n1" ?
1.01

Would you mind doing "c1ccc(OCCOc2ccccn2)nc1" as well?
0.994

What do you have for "c1ccc2c(c1)sc1ccccc12" ?
0.938

// same read-out, input: "CC(=O)Oc1cc(OC(C)=O)c2c(c1)O[C@H](c1ccc(OC(C)=O)c(OC(C)=O)c1)[C@@H](OC(C)=O)C2"
1.04

Let us now turn to CC(=O)O[C@H]1C[C@@H](OC(C)=O)C(C)(C)C2CC(=O)[C@]3(C)C(CC[C@@]4(C)[C@H](C(=O)O)OC(=O)C5OC543)[C@]21C (stereo partly specified)
1.05

Follow-up item: "CN1CCC(OC(c2ccccc2)c2ccccc2)CC1"
1.02

Try this compound next: "COc1cc(CNC(=O)CCCC/C=C/C(C)C)ccc1O"
1

Also "NC(=O)c1ccc[n+]([C@@H]2O[C@H](COP(=O)([O-])OP(=O)(O)OC[C@H]3O[C@@H](n4cnc5c(N)ncnc54)[C@H](OP(=O)(O)O)[C@@H]3O)[C@@H](O)[C@H]2O)c1" , if possible.
1.02

Do the same for CN1C2CCC1CC(OC(c1ccccc1)c1ccccc1N)C2 (stereo unspecified) please
1.01

Now this one: "O=C1NCC2(CCN(CCc3ccccc3)CC2)O1"
1

Same question, "COc1ccccc1-c1coc2cc(O)ccc2c1=O" this time
0.963

Try this compound next: CC(C)NCC(O)COc1cccc2[nH]ccc12 (stereo unspecified)
0.989

Would you kindly repeat that for "O=c1cccc2ccc(O)c(O)c2c1O" ?
0.112

Now try "CN1CC(=O)N=C1N" .
1

Query "CCCCCCCCC(=O)NCc1ccc(O)c(OC)c1" next
0.976

Another compound to look at: "CCC[C@H](N[C@@H](C)C(=O)N1[C@H](C(=O)O)C[C@@H]2CCCC[C@@H]21)C(=O)OCC"
1.01

Then what about the compound "C#CCN(C)Cc1ccccc1" ?
1

// repeat for CC[C@@H](C(=O)C(C)[C@@H](O)[C@H](C)CCc1ccc(C)c(O)c1C(=O)O)C1OC(CC)(C2CC[C@](O)(CC)[C@H](C)O2)C[C@@H]1C (stereo partly specified) and report
1.02

And what about the compound c1ccc2c(c1)CCCC2C1=NCCN1 (stereo unspecified) ?
1.01
